assay: Bmi1-luciferase reporter activators in mESC, dose response, esBAF inhibitor project, mouse embryonic stem cells, cherry-pick (AID 651717); settings: firefly/renilla ratio, 24 h, stronger effect = higher value; at 35 µM unless noted;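 further: luciferase knocked into Bmi1 locus with EF-1a renilla as cell number control; rising ratio signals esBAF inhibition which derepresses Bmi1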
The whole screen tested about 1,200 compounds, of which about 950 (79%) were called active. So high a share suggests a set chosen from earlier hits. Not all results are given here. Measured potencies and affinities stand elsewhere.
Value Type: max activity

Worked examples follow.
Query :: What value of max activity has been reported for the following compound? OC(c1ccccc1)c1ncc(-c2ccccc2F)[nH]1 (stereo not drawn)
Result :: -21.5% (inactive)

Query :: Same lookup for C[C@@H]1CN([C@@H](C)CO)C(=O)c2cc(NC(=O)Nc3ccc4c(c3)OCO4)ccc2O[C@@H](C)CCCCO[C@H]1CN(C)Cc1ccncc1 , please.
Result :: -10.2% [at 0.5 µM] (inactive)

Query :: Same lookup for CCc1ccc(C(O)c2ncc(-c3cccc(F)c3)[nH]2)cc1 (stereo not drawn) , please.
Result :: -31.3% (inactive)

Query :: Same lookup for C[C@@H]1CN([C@@H](C)CO)C(=O)c2cccc(NC(=O)Nc3ccccc3)c2O[C@H]1CN(C)C(=O)Nc1ccc2c(c1)OCO2 , please.
Result :: -14.4% (inactive)

Query :: Same lookup for C[C@H]1CN([C@@H](C)CO)C(=O)c2cccc(NC(=O)Nc3ccccc3)c2O[C@@H]1CN(C)C(=O)Nc1ccc2c(c1)OCO2 , please.
Result :: -6.52% (inactive)

Query :: Same lookup for Cc1c(CC(C)C)nc(N)c(C#N)c1-c1ccccc1 , please.
Result :: 8.97% [at 16 µM] (inactive)

Query :: Same lookup for Cc1ccc(S(=O)(=O)N2CCOCC2)cc1C(=O)Nc1ccc(-c2cn3ccsc3n2)cc1 , please.
Result :: -8.19% (inactive)

Next, consider the following compound.
Query :: What value of max activity has been reported for the following compound? C[C@@H]1CN([C@@H](C)CO)S(=O)(=O)c2ccc(-c3ccc(F)cc3)cc2O[C@H]1CN(C)C(=O)C1CC1
Result :: -26.9% (inactive)

====

assay: Bmi1-luciferase reporter activators in mESC, dose response, esBAF inhibitor project, mouse embryonic stem cells, cherry-pick (AID 651717); details: firefly/renilla ratio, 24 h, stronger effect = higher value; at 35 µM unless noted
Hit rate of the full screen: of about 1,200 compounds, about 950 (79%) were called active. So high a share suggests a set chosen from earlier hits. These entries were drawn from the full list. Potency and affinity values are given separately.
Value Type: max activity

Query :: What value of max activity has been reported for the following compound? C[C@H](CO)N1C[C@H](C)[C@H](CN(C)C(=O)Nc2ccccc2)OCCCC[C@H](C)Oc2ccc(NC(=O)Nc3ccc4c(c3)OCO4)cc2C1=O
Result :: -15.5% [at 0.26 µM] (inactive)

New cases:
Query :: What value of max activity has been reported for the following compound? COc1ccc(CNC(=O)N(C)C[C@@H]2OCc3ccccc3-c3c(n(C)c4ccccc34)C(=O)N([C@H](C)CO)C[C@@H]2C)cc1
Result :: -26.4% [at 30 µM] (inactive)

Query :: Same lookup for Cc1ccc(COc2ccccc2C(=S)N2CCCC2)cc1 , please.
Result :: 28.7% (inactive)

Query :: Same lookup for Cc1ccc(CN2CN(S(=O)(=O)c3cccs3)c3nc4ccccc4nc32)cc1 , please.
Result :: -38.8% (inactive)

Query :: Same lookup for C[C@H]1CN([C@@H](C)CO)C(=O)c2cccc(NS(=O)(=O)c3ccccc3)c2O[C@H]1CN(C)C(=O)Nc1ccc2c(c1)OCO2 , please.
Result :: -6.71% (inactive)

Query :: Same lookup for C[C@@H]1CCCCO[C@@H](CN(C)C(=O)Nc2cccc3ccccc23)[C@H](C)CN([C@H](C)CO)C(=O)c2cc(NC(=O)C3CCCCC3)ccc2O1 , please.
Result :: 28.2% [at 16 µM] (inactive)

====

experiment: Bmi1-luciferase reporter activators in mESC, dose response, esBAF inhibitor project, mouse embryonic stem cells, cherry-pick (AID 651717); conditions: firefly/renilla ratio, 24 h, stronger effect = higher value; at 35 µM unless noted;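 further: luciferase knocked into Bmi1 locus with EF-1a renilla as cell number control; rising ratio signals esBAF inhibition which derepresses Bmi1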
About 950 (79%) of roughly 1,200 compounds were called active. So high a share suggests a set chosen from earlier hits. A selection follows. Results with a measured potency or affinity are listed apart.
# max activity per entry

Worked examples follow.
Query :: What value of max activity has been reported for the following compound? COc1ccc2nc(N(CCN(C)C)C(=O)c3ccc4ncsc4c3)sc2c1
Result :: 43.3% [at 8 µM] (inactive)

Query :: Same lookup for COc1ccc2cc(C(=O)c3ccccc3)c(=O)oc2c1 , please.
Result :: 32.6% [at 4.2 µM] (inactive)

Query :: Same lookup for C[C@@H]1CN([C@@H](C)CO)C(=O)c2cc(NS(=O)(=O)c3ccc(F)cc3)ccc2O[C@H]1CN(C)C(=O)Nc1ccc2c(c1)OCO2 , please.
Result :: -5.95% [at 0.5 µM] (inactive)

Query :: Same lookup for O=S(=O)(c1cccs1)N1CN(Cc2ccc(Cl)cc2)c2nc3ccccc3nc21 , please.
Result :: -33.7% (inactive)

Query :: Same lookup for C[C@@H]1CCCCO[C@@H](CN(C)S(=O)(=O)c2cn(C)cn2)[C@H](C)CN([C@H](C)CO)C(=O)c2cc(NC(=O)Nc3ccc4c(c3)OCO4)ccc2O1 , please.
Result :: -9.02% [at 2.1 µM] (inactive)

Next, consider the following compound.
Query :: What value of max activity has been reported for the following compound? Cn1c(SCc2nc3ccccc3s2)nnc1-c1ccc2c(c1)OCO2
Result :: 27.7% (inactive)

====

test: Bmi1-luciferase reporter activators in mESC, dose response, esBAF inhibitor project, mouse embryonic stem cells, cherry-pick (AID 651717); conditions: firefly/renilla ratio, 24 h, stronger effect = higher value; at 35 µM unless noted;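 further: luciferase knocked into Bmi1 locus with EF-1a renilla as cell number control; rising ratio signals esBAF inhibition which derepresses Bmi1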
Screen size: about 1,200 compounds; about 950 (79%) were called active. So high a share suggests a set chosen from earlier hits. Only a sample is shown. Potency and affinity values are given separately.
# max activity per entry

Query :: What value of max activity has been reported for the following compound? Brc1ccc(N=C/C=C/C=C/Nc2ccc(Br)cc2)cc1
Result :: 9.66% [at 4.2 µM] (inactive)

Query :: Same lookup for Cc1cccc(-c2nnc(-c3cccc(NC(=O)Cc4cccs4)c3)o2)c1 , please.
Result :: 34.9% (inactive)

Query :: Same lookup for C[C@H](CO)N1C[C@H](C)[C@@H](CN(C)Cc2ccncc2)Oc2c(NC(=O)Nc3ccc4c(c3)OCO4)cccc2C1=O , please.
Result :: 39.5% [at 0.26 µM] (inactive)

Query :: Same lookup for C[C@@H]1CCCCO[C@@H](CN(C)Cc2ccncc2)[C@@H](C)CN([C@@H](C)CO)C(=O)c2cc(NC(=O)Nc3ccc4c(c3)OCO4)ccc2O1 , please.
Result :: 11% (inactive)

Query :: Same lookup for C[C@H]1CCCCO[C@@H](CN(C)Cc2ccncc2)[C@@H](C)CN([C@@H](C)CO)C(=O)c2cc(NC(=O)Nc3ccc4c(c3)OCO4)ccc2O1 , please.
Result :: -19.5% (inactive)

New cases:
Query :: What value of max activity has been reported for the following compound? CN1C(=O)c2cc(NC(=O)c3ccc(C#N)cc3)ccc2OC[C@H]2O[C@@H](CC(=O)NC3Cc4ccccc4C3)CC[C@@H]21
Result :: -7.14% (inactive)

Query :: Same lookup for O=C(c1cc(COc2ccc(F)cc2F)on1)N1CC2C[C@@H]3CC1C[C@H](C2)C3 , please.
Result :: 35.9% [at 16 µM] (inactive)

Query :: Same lookup for COc1ccc(N(CC(=O)Nc2ccccc2C(N)=O)S(=O)(=O)c2ccc(C)c([N+](=O)[O-])c2)cc1 , please.
Result :: 17% [at 16 µM] (inactive)

====

assay: Bmi1-luciferase reporter activators in mESC, dose response, esBAF inhibitor project, mouse embryonic stem cells, cherry-pick (AID 651717); details: firefly/renilla ratio, 24 h, stronger effect = higher value; at 35 µM unless noted;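 further: luciferase knocked into Bmi1 locus with EF-1a renilla as cell number control; rising ratio signals esBAF inhibition which derepresses Bmi1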
The campaign covered roughly 1,200 compounds. About 950 (79%) were called active. The set was probably picked from earlier hits. The list is a sample of the results. Potency and affinity values are given separately.
# max activity per entry

Query :: What value of max activity has been reported for the following compound? COc1cccc(C(=O)Nc2ccc3c(c2)OC[C@@H](C)N(CCc2ccccc2)C[C@@H](C)[C@H](OC)CN(C)C3=O)c1
Result :: 9.35% [at 1 µM] (inactive)

New cases:
Query :: What value of max activity has been reported for the following compound? O=C(O)c1ccc(NCc2cccnc2)cc1
Result :: 12.2% (inactive)

Query :: Same lookup for O=C(c1ccc2ccccc2c1O)N1CCCCC1 , please.
Result :: -23.4% (inactive)

Query :: Same lookup for COc1ccc(C(=O)O/N=C(\N)c2ccc(OC)c(OC)c2)c(OC)c1 , please.
Result :: 34.8% (inactive)

Query :: Same lookup for Cc1ccc2nc(NC(=O)CCNS(=O)(=O)c3cccs3)sc2c1 , please.
Result :: 37.2% (inactive)

Query :: Same lookup for CN(C)c1ccc(-c2nnn(Cc3ccccc3Br)n2)cc1 , please.
Result :: -12.5% (inactive)

Query :: Same lookup for C[C@H](CO)N1C[C@H](C)[C@@H](CN(C)Cc2ccc(-c3ccccc3)cc2)Oc2ccc(NC(=O)CCCCCC(=O)Nc3ccccc3N)cc2CC1=O , please.
Result :: 16.8% [at 16 µM] (inactive)

Query :: Same lookup for CNC[C@@H]1OCCCC[C@H](C)Oc2ccc(NS(=O)(=O)c3ccc(C)cc3)cc2C(=O)N([C@H](C)CO)C[C@H]1C , please.
Result :: -8.01% [at 1.1 µM] (inactive)

Query :: Same lookup for COc1ccc(NC(=O)N(C)C[C@H]2OCCCC[C@@H](C)Oc3ccc(NC(=O)Nc4ccc5c(c4)OCO5)cc3C(=O)N([C@H](C)CO)C[C@@H]2C)cc1 , please.
Result :: 12.1% [at 8 µM] (inactive)

Query :: Same lookup for C/C(=N\NC(=O)c1ccc(Cn2cc(Br)cn2)o1)c1ccc(NC(=O)c2ccoc2C)cc1 , please.
Result :: 18.3% [at 16 µM] (inactive)

Query :: Same lookup for C[C@H]1CN([C@@H](C)CO)C(=O)c2cccc(NS(=O)(=O)c3ccccc3)c2O[C@@H]1CN(C)C(=O)Nc1ccc2c(c1)OCO2 , please.
Result :: -33.5% [at 30 µM] (inactive)

Query :: Same lookup for COc1ccc(-c2nn(-c3ccccc3)cc2/C=C(\CC(=O)O)c2nc3ccccc3s2)cc1OC , please.
Result :: 26.9% (inactive)

Query :: Same lookup for C[C@H](CO)N1C[C@H](C)[C@@H](CN(C)C(=O)Nc2ccc(F)cc2)OCCCC[C@H](C)Oc2ccc(NC(=O)Nc3ccc4c(c3)OCO4)cc2C1=O , please.
Result :: 15.2% [at 8 µM] (inactive)

Query :: Same lookup for CN(C)Cc1c(C(=O)N/N=C/c2ccccc2OCc2c(F)cccc2Cl)nnn1-c1nonc1N , please.
Result :: 19.7% [at 4.2 µM] (inactive)
